# METHOD_DESCRIPTION: self-splicing fitness, log relative to wild type (ln ratio); higher = more splicing; Tetrahymena group I intron in knt gene, E. coli kanamycin selection, DiMSum; sequences stand for … in CUCUCU…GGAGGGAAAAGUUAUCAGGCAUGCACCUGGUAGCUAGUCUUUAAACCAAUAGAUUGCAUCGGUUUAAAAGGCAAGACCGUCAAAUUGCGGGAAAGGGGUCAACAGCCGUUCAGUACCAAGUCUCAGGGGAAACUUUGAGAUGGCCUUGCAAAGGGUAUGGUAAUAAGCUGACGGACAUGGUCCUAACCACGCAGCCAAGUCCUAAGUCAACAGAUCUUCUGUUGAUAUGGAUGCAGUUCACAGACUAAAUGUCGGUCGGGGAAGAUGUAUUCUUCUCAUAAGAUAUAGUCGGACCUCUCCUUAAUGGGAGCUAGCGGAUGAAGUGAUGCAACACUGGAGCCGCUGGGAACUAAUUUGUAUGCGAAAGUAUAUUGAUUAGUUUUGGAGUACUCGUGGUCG;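 note: selection with 25 µg/mL kanamycin versus none on LB agar overnight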
# SETUP_CONDITIONS: 37 °C
Listing of recorded self-splicing fitness (ln) by entry.
Give the figure by itself; no unit, no explanation.

Would you please look over these solved cases?
| CONSTRUCT_SEQUENCE | self-splicing fitness (ln) |
| --- | --- |
| GAAGAGCAAUAUUACGCGGC | -1.8 |
| CUUCAGCAAUAUUACGUGAC | -3.05 |
| CCGUAGCAAUAUUACGCGGU | -2.38 |
| CCCCAGCAAUAUUACGGCAC | -2.55 |
| CAUAAGCAAUAUUACGUAUA | -2.32 |
| UGACAGCAAUAUUACGUUGA | -1.9 |
| UCGCAGCAAUAUUACGAUGG | -0.226 |

(Q) What value of self-splicing fitness (ln) has been reported for the following sequence? `UUAGAGCAAUAUUACGUAGG`
(A) -1.5

====

# METHOD_DESCRIPTION: self-splicing fitness, log relative to wild type (ln ratio); higher = more splicing; Tetrahymena group I intron in knt gene, E. coli kanamycin selection, DiMSum; sequences stand for … in CUCUCU…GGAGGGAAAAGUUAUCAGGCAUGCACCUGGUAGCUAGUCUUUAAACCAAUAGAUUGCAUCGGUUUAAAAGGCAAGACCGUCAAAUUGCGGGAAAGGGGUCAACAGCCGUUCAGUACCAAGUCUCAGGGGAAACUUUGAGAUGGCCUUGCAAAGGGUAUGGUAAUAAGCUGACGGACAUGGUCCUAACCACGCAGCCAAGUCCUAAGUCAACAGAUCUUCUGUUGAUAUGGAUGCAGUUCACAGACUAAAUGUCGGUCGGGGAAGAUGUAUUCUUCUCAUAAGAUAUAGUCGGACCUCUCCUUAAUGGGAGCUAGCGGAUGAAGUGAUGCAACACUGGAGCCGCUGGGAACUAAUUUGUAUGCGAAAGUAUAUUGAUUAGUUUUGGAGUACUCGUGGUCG
# SETUP_CONDITIONS: 37 °C
OBSERVABLE: self-splicing fitness (ln)
Give the figure by itself; no unit, no explanation.

| CONSTRUCT_SEQUENCE | OBSERVABLE | VALUE_REPORTED |
| --- | --- | --- |
| GGCCAGCAAUAUUACGUGCG | self-splicing fitness (ln) | -0.564 |
| GGCGAGCAAUAUUACGGCUG | self-splicing fitness (ln) | -0.389 |
| UACAAGCAAUAUUACGGGAG | self-splicing fitness (ln) | -1.49 |

(Q) What value of self-splicing fitness (ln) has been reported for the following sequence? `AACCAGCAAUAUUACGAGCC`
(A) -1.72

(Q) What value of self-splicing fitness (ln) has been reported for the following sequence? `AUGGAGCAAUAUUACGCAUA`
(A) -1.29

(Q) What value of self-splicing fitness (ln) has been reported for the following sequence? `AUGCAGCAAUAUUACGUACG`
(A) -0.573

(Q) What value of self-splicing fitness (ln) has been reported for the following sequence? `AGGCAGCAAUAUUACGACGU`
(A) 0.539

(Q) What value of self-splicing fitness (ln) has been reported for the following sequence? `UCCCAGCAAUAUUACGACAU`
(A) -2.13
